Test system: XL2 cells
Experiment: Fluorescence microscopy analysis of the stages of mitosis
Type: cell-based, Xenopus
Details: 50 cells blocked in mitosis
Protocol: The molecules synthesized were tested in vitro on the proteolytic activities described of the proteasome, then in vivo on Xenopus (XL2) cell cultures. Knowledge of the cell cycle of XL2 cells has made it possible to carry out synchronization experiments and also to evaluate the duration of each of the phases of the cycle. Observation of the nuclear content makes it possible to determine the different stages of the mitosis. […] The first 7 inhibitors were studied using fluorescence microscopy.
Square brackets hold non-standard residues; d marks the D form. Peptide text beside a SMILES is read from it. Nle = CCCC[C@H](N)C(=O)O
# % Metaphase annotations
Measure name: % Metaphase (%)

>>> quantitative_result("CCCCN(NC(=O)C(F)(F)F)C(=O)CN(CC(C)C)NC(=O)OC(C)(C)C")
42
>>> quantitative_result("CC(C)CN(CC(=O)NN(CC(C)C)C(=O)C(F)(F)F)NC(=O)OC(C)(C)C [P1, Boc-N^αhLeu-azaLeu-CF3]")
35
>>> quantitative_result("CCCCN(NC(=O)C(=O)OCC)C(=O)CN(CC(C)C)NC(=O)OC(C)(C)C")
26
>>> quantitative_result("CCOC(=O)C(=O)N(CC(C)C)NC(=O)CN(CC(C)C)NC(=O)OC(C)(C)C")
45
>>> quantitative_result("CCCC[C@@H](C=O)NC(=O)[C@H](CC(C)C)NC(=O)[C@H](CC(C)C)NC(C)=O [ALLN, N-acetyl-leucinyl-leucinyl-norleucinal, reference compound] (Ac-Leu-Leu-[Nle]-aldehyde)")
83
>>> quantitative_result("CC(C)CN(CC(=O)N(CC(C)C)NC(N)=O)NC(=O)OC(C)(C)C")
35
>>> quantitative_result("COC(=O)N(CC(C)C)NC(=O)CN(CC(C)C)NC(=O)OC(C)(C)C [P2]")
36
>>> quantitative_result("CC(C)CN(CC(=O)N(CC(N)=O)CC(C)C)NC(=O)OC(C)(C)C")
24

---

target: UniProtKB P28074; test: Inhibition of the chymotrypsin catalytic activity of the purified proteasome; format: biochemical; settings: 2 mM compound
Measure name: inhibition at 2000 µM (%)

>>> quantitative_result("COC(=O)N(CC(C)C)NC(=O)CN(CC(C)C)NC(=O)OC(C)(C)C [P2]")
47
>>> quantitative_result("CC(C)CN(CC(=O)N(CC(C)C)NC(N)=O)NC(=O)OC(C)(C)C")
23
>>> quantitative_result("CCCCN(NC(=O)C(=O)OCC)C(=O)CN(CC(C)C)NC(=O)OC(C)(C)C")
31
>>> quantitative_result("CCOC(=O)C(=O)NN(CC(C)C)C(=O)CN(CC(C)C)NC(=O)OC(C)(C)C")
30

---

biological target: purified proteasome (chymotrypsin activity) (Homo sapiens, UniProt P28074); test: Inhibition of the chymotrypsin catalytic activity of the purified proteasome; format: biochemical; conditions: 2 mM compound
# inhibition at 2000 µM annotations
Measure name: inhibition at 2000 µM (%)

>>> quantitative_result("CC(C)CN(CC(=O)N(CC(C)C)NC(=O)CC#N)NC(=O)OC(C)(C)C [P12]")
48
>>> quantitative_result("CCCCN(NC(=O)C(F)(F)F)C(=O)CN(CC(C)C)NC(=O)OC(C)(C)C [P4, Boc-N^αhLeu-N-azaNorleu-CF3]")
29
>>> quantitative_result("CCOC(=O)C(=O)N(CC(C)C)NC(=O)CN(CC(C)C)NC(=O)OC(C)(C)C [P5, Boc-N^αhLeu-azaLeu-CO2Et]")
32
>>> quantitative_result("CC(C)CN(CC(=O)N(CC(N)=O)CC(C)C)NC(=O)OC(C)(C)C [P6]")
38
>>> quantitative_result("CC(C)CN(CC(=O)NN(CC(C)C)C(=O)C(F)(F)F)NC(=O)OC(C)(C)C [P1, Boc-N^αhLeu-azaLeu-CF3]")
29
>>> quantitative_result("CC(C)CN(CC(=O)N(CC(C)C)NC(=O)C(F)(F)F)NC(=O)OC(C)(C)C [P8, Boc-N^αhLeu-N-azaLeu-CF3]")
28
>>> quantitative_result("CC(C)CN(CC(=O)N(CC(C)C)NC=O)NC(=O)OC(C)(C)C [P13, Boc-N^αhLeu-N-azaLeu-H]")
35
>>> quantitative_result("CC(C)CN(CC(=O)N(CC(C)C)/N=C/c1cccc(B(O)O)c1)NC(=O)OC(C)(C)C [P15, Boc-N^αhLeu-N-azaLeu-CH-Ph-m-B(OH)2]")
38
>>> quantitative_result("CC(C)CN(CC(=O)N(Cc1ccccc1)NC(=O)CBr)NC(=O)OC(C)(C)C [P17, Boc-N^αhLeu-N-azaPhe-COCH2Br]")
70
>>> quantitative_result("CC(C)CN(CC(=O)N(CC(C)C)NC(=O)CBr)NC(=O)OC(C)(C)C [P14, Boc-N^αhLeu-N-azaLeu-CH2Br]")
70
>>> quantitative_result("CCSCC(=O)NN(CC(C)C)C(=O)CN(CC(C)C)NC(=O)OC(C)(C)C [P16]")
34

---

# melting point annotations
Measure name: melting point (°C)

>>> quantitative_result("CC(C)CN(CC(=O)N(CC(C)C)/N=C/c1ccc(B(O)O)cc1)NC(=O)OC(C)(C)C [P15p, Boc-N^αhLeu-N-azaLeu-CH-Ph-p-B(OH)2]")
186
>>> quantitative_result("CC(C)CN(CC(=O)N(CC(C)C)NC(=O)C(F)(F)F)NC(=O)OC(C)(C)C")
110
>>> quantitative_result("CC(C)CN(CC(=O)N(CC(C)C)NC(N)=O)NC(=O)OC(C)(C)C")
138
>>> quantitative_result("CCOC(=O)C(=O)N(CC(C)C)NC(=O)CN(CC(C)C)NC(=O)OC(C)(C)C")
147
>>> quantitative_result("CC(C)CN(CC(=O)N(CC(C)C)NC=O)NC(=O)OC(C)(C)C")
124
>>> quantitative_result("CC(C)CN(CC(=O)NN(CC(C)C)C(=O)C(F)(F)F)NC(=O)OC(C)(C)C [P1, Boc-N^αhLeu-azaLeu-CF3]")
105
>>> quantitative_result("CCCCN(NC(=O)C(=O)OCC)C(=O)CN(CC(C)C)NC(=O)OC(C)(C)C")
105
>>> quantitative_result("CC(C)CN(CC(=O)N(CC(C)C)/N=C/c1ccccc1B(O)O)NC(=O)OC(C)(C)C [P15o, Boc-N^αhLeu-N-azaLeu-CH-Ph-o-B(OH)2]")
159
>>> quantitative_result("CC(C)CN(CC(=O)N(Cc1ccccc1)NC(=O)CBr)NC(=O)OC(C)(C)C")
135

---

test system: XL2 cells; assay: Fluorescence microscopy analysis of the stages of mitosis; type: cell-based, Xenopus; details: 50 cells blocked in mitosis
Square brackets hold non-standard residues; d marks the D form. Peptide text beside a SMILES is read from it. Nle = CCCC[C@H](N)C(=O)O
# % Prophase annotations
Measure name: % Prophase (%)

>>> quantitative_result("CC(C)CN(CC(=O)N(CC(N)=O)CC(C)C)NC(=O)OC(C)(C)C")
18
>>> quantitative_result("COC(=O)N(CC(C)C)NC(=O)CN(CC(C)C)NC(=O)OC(C)(C)C [P2]")
18
>>> quantitative_result("CCOC(=O)C(=O)N(CC(C)C)NC(=O)CN(CC(C)C)NC(=O)OC(C)(C)C")
18
>>> quantitative_result("CCCC[C@@H](C=O)NC(=O)[C@H](CC(C)C)NC(=O)[C@H](CC(C)C)NC(C)=O [ALLN, N-acetyl-leucinyl-leucinyl-norleucinal, reference compound] (Ac-Leu-Leu-[Nle]-aldehyde)")
15
>>> quantitative_result("CC(C)CN(CC(=O)N(CC(C)C)NC(N)=O)NC(=O)OC(C)(C)C")
27
>>> quantitative_result("CCCCN(NC(=O)C(F)(F)F)C(=O)CN(CC(C)C)NC(=O)OC(C)(C)C")
16
>>> quantitative_result("CC(C)CN(CC(=O)NN(CC(C)C)C(=O)C(F)(F)F)NC(=O)OC(C)(C)C [P1, Boc-N^αhLeu-azaLeu-CF3]")
14
>>> quantitative_result("CCCCN(NC(=O)C(=O)OCC)C(=O)CN(CC(C)C)NC(=O)OC(C)(C)C")
21
